- System: Aspergillus niger
- assay summary: Antimicrobial activity against Aspergillus niger MTCC 282 assessed as growth inhibition by broth microdilution method
- Assay type: functional
Provide the reported MIC99 of each item.
Numbers only, in µg/mL.

O=C1C(=O)N(CCCSC(=S)N2CCN(c3ccc(Cl)c(Cl)c3)CC2)c2ccc([N+](=O)[O-])cc21	250
S=C(SSC(=S)N1CCN(c2ccc(Cl)c(Cl)c2)CC1)N1CCN(c2ccc(Cl)c(Cl)c2)CC1	100
O=C1C(=O)N(CCSC(=S)N2CCN(c3ccc(Cl)c(Cl)c3)CC2)c2ccc([N+](=O)[O-])cc21	100
O=C1C(=O)N(CCCSC(=S)N2CCN(c3ccc(Cl)c(Cl)c3)CC2)c2ccc(Br)cc21	100
O=C1C(=O)N(CCCSC(=S)N2CCN(c3ccc(Cl)c(Cl)c3)CC2)c2ccccc21	500

For each entry beneath this line, provide reported MIC99.
1. O=C1C(=O)N(CCSC(=S)N2CCN(c3ccc(Cl)c(Cl)c3)CC2)c2ccccc21
2. COC1=CC(=O)C[C@@H](C)[C@]12Oc1c(Cl)c(OC)cc(OC)c1C2=O
3. O=C1C(=O)N(CCCSC(=S)N2CCN(c3ccc(Cl)c(Cl)c3)CC2)c2ccc(F)cc21
4. O=C1C(=O)N(CCSC(=S)N2CCN(c3ccc(Cl)c(Cl)c3)CC2)c2ccc(F)cc21
5. O=C1C(=O)N(CCSC(=S)N2CCN(c3ccc(Cl)c(Cl)c3)CC2)c2ccc(Br)cc21

result:
1: 500; 2: 100; 3: 200; 4: 100; 5: 200
